# LC retention time per entry
- experiment: RP, Phenomenex Synergi Hydro-RP, 250 × 2 mm, 4 µm, 25 °C, 0.2 mL/min, estimated dead time 2.5 min; A: water + 0.1% formic acid, pH 3; B: acetonitrile + 0.1% formic acid, pH 3; gradient (min/%B) 0/0.5 7/0.5 12/12.5 25/16.3 47/35 48/65 50/65 50.1/0.5
- condition_parameters: stereoisomer not certain
State just the number; it will be interpreted in min.

Completed entries (count: 3):
compound	LC retention time (min)
CC(=O)OCC1OC(Oc2c(-c3ccc(O)c(O)c3)oc3cc(O)cc(O)c3c2=O)C(O)C(O)C1O (stereo not drawn) [Quercetin-3-O-(6-acetylglucoside)]	38.8
O=C(O)c1c(O)cc(O)cc1O [2,4,6-trihydroxybenzoic acid]	15.9
O=C(O)CCc1ccc(O)c(O)c1 [Dihydrocaffeic acid]	20.1

Entry O=C(CCc1ccc(O)cc1)c1c(O)cc(O)cc1O [Phloretin] has what LC retention time? 50.6

For the compound shown here, COc1ccc(C=CC(=O)O)cc1 [4-methoxycinnamic acid] , give the reported LC retention time. 48

Please give the measured LC retention time for this compound: O=C(O)CCc1ccccc1 [3-phenylpropionic acid] 44.5

Item COc1ccccc1C(=O)O [o-Anisic acid] has what recorded LC retention time? 31.4

Which LC retention time is listed for O=C(O)CC(=O)OCC1OC(Oc2c(-c3ccc(O)c(O)c3)oc3cc(O)cc(O)c3c2=O)C(O)C(O)C1O (stereo not drawn) [Quercetin 3-O-malonylglucoside] ? 37

* * *

- experiment: RP, Waters ACQUITY UPLC HSS T3, 100 × 2.1 mm, 50 °C; A: water + 0.1% formic acid, pH 3; B: 30% methanol + 70% acetonitrile + 0.1% formic acid, pH 3; gradient (min/%B) 0/5 1/8 2/15 3/40 4/70 4.5/100 5/100 6.4/100 6.6/5 6.8/5 7/5
- condition_parameters: stereoisomer not certain
Where a name gives a salt, the structure may show the parent alone.
result_type: LC retention time

The following compounds have reported results that may help.
                                   compound  experimental_value
0            O=C(O)c1cc(=O)c2cccc(O)c2[nH]1            2.57 min
1  O=c1c(O)c(-c2ccc(O)c(O)c2)oc2cc(O)cc(O)c12            3.74 min
2  O=S(=O)(O)Oc1c[nH]c2ccccc12 [3-Indoxyl sulfate]            2.67 min

Quick one: LC retention time for `Cc1ccccc1C(=O)NCC(=O)O` ? 3.4 min

What value of measured LC retention time is listed for `O=C(O)CNC(=O)c1ccccc1` ? 3.07 min

What does the record list as LC retention time for `O=C(O)CNC(=O)C=Cc1c[nH]c2ccccc12` ? 3.56 min

* * *

Let's look at some compounds and their measured LC retention time.
- experiment: RP, Phenomenex Kinetex EVO C18, 100 × 2.1 mm, 2.6 µm, 40 °C, 0.4 mL/min, estimated dead time 0.55 min; A: water + 0.2% formic acid; B: acetonitrile + 0.2% formic acid; gradient (min/%B) 0/5 0.5/5 7/95 8/95 8.5/5 12/5
- condition_parameters: stereoisomer not certain
Your answer is read as min, so omit the unit and give the number.

>>> df
                                   compound  experimental_value
0  O=c1oc2cc(O)ccc2c2cc(O)c(O)cc12 [Urolithin C]                5.11
1  O=C1CC(c2ccc(O)cc2)Oc2cc(OC3OC(C(=O)O)C(O)C(O)C3O)cc(O)c21 (stereo not given) [Naringenin-7-O-glucuronide]                5.12
2  COc1cc(C=CC(=O)O)ccc1OS(=O)(=O)O [Ferulic acid 4-O-sulfate]                4.59
3  COc1ccc(CCC(=O)O)cc1OC1OC(C(=O)O)C(O)C(O)C1O (stereo not given) [Dihydro isoferulic acid-3-O-glucuronide]                4.22
4  O=C1CCC(Cc2ccc(O)c(O)c2)O1 (stereo not given) [5-(3',4'-Dihydroxyphenyl)-gamma-valerolactone]                4.13
5  O=C(O)c1ccc(O)c(OC2OC(C(=O)O)C(O)C(O)C2O)c1 (stereo not given) [Protocatechuic acid-3-O-glucuronide]                1.44
6  O=C(O)CCc1cccc(O)c1 [3-(3-hydroxyphenyl)propanoic acid]                4.51
7  COc1ccc(C=CC(=O)O)cc1OS(=O)(=O)O [Isoferulic acid 3-O-sulfate]                4.79

I would be grateful if you could share the reported LC retention time for COc1ccc(C(=O)O)cc1OC1OC(C(=O)O)C(O)C(O)C1O (stereo not given) [Isovanillic acid-3-glucuronide] . 2.34

Look at this compound and give its reported LC retention time. COc1ccc(C(=O)O)cc1OS(=O)(=O)O [Isovanillic acid-3-O-sulfate] 3.68

Which LC retention time value belongs to O=Cc1ccc(O)c(O)c1 [3,4-Dihydroxybenzaldehyde] ? 2.18

Could you tell me which LC retention time is on file for COc1ccc(C=CC(=O)O)cc1OC1OC(C(=O)O)C(O)C(O)C1O (stereo not given) [Isoferulic acid-3-O-glucuronide] ? 4.25

Record request: LC retention time value, item O=C(O)c1ccc(OC2OC(C(=O)O)C(O)C(O)C2O)c(O)c1 (stereo not given) [Protocatechuic acid-4-glucuronide] 1.03

Which LC retention time is reported for this compound? O=C(O)C1OC(Oc2c(-c3ccc(O)c(O)c3)oc3cc(O)cc(O)c3c2=O)C(O)C(O)C1O (stereo not given) [Quercetin-3-O-glucuronide] 4.92

Consider the compound shown here: O=C(O)CCc1ccc(O)c(OS(=O)(=O)O)c1 [Dihydrocaffeic acid-3-O-sulfate] What is its recorded LC retention time? 4.04

* * *

- experiment: RP, Phenomenex Luna Omega Polar C18, 100 × 2.1 mm, 1.6 µm, 40 °C, 0.5 mL/min, estimated dead time 0.44 min; A: water + 0.5% formic acid; B: acetonitrile + 0.5% formic acid; gradient (min/%B) 0/5 3/50 3.1/100 5/100 5.1/5 7/5
- condition_parameters: stereoisomer not certain
result_type: LC retention time
Write the quantity with the unit trailing the number.

Before answering, review these 5 worked examples.
>>> print(df.to_string())
                                   molecule  experimental_value
0      O=c1ccc2c(O)c3ccoc3cc2o1 [Bergaptol]            3.25 min
1  O=C(O)Cc1ccc(O)cc1 [4-Hydroxyphenylacetic acid]            1.15 min
2  Oc1cc(O)c2cc(O)c(-c3ccc(O)c(O)c3)[o+]c2c1 [Cyanidin]            3.17 min
3  COc1cc(C=CC(=O)O)cc(OC)c1O [Sinapic acid]            2.53 min
4  COc1c(O)cc(C(=O)O)cc1OS(=O)(=O)O [4-O-methylgallic acid 3-O-sulfate]            1.41 min

// next item, LC retention time requested
# input molecule: CCC(CCC(C)C1CCC2C3CC=C4CC(O)CCC4(C)C3CCC12C)C(C)C (stereo not drawn) [beta-sitosterol] ; wanted: its LC retention time 3.92 min

* * *

Form field: LC retention time (one value per entry).
- experiment: RP, Waters ACQUITY UPLC HSS T3, 100 × 2.1 mm, 1.8 µm, 30 °C, 0.4 mL/min, estimated dead time 0.55 min; A: water + 0.1% formic acid, pH 3; B: acetonitrile + 0.1% formic acid, pH 3; gradient (min/%B) 0/0 2/0 15/100 22/100 22.1/0 26/0
- condition_parameters: stereoisomer not certain
Answer format reminder: number followed by unit.

>>> df
                                 molecule  experimental_value
0  COc1ccc(-c2cc(=O)c3c(O)cc(O)cc3o2)cc1O            11.8 min

Name the reported LC retention time value associated with the molecule `O=C(O)c1ccc(O)c(O)c1` 7.22 min

Suppose we examine the molecule `O=C(CCc1ccc(O)cc1)c1c(O)cc(O)cc1O` ; what LC retention time value has been reported? 11.4 min

If you can, please state the reported LC retention time value of `O=c1c(O)c(-c2ccc(O)cc2)oc2cc(O)cc(O)c12` . 11.6 min

What value of LC retention time has been reported for the following molecule? O=C(O)C1OC(Oc2c(-c3ccc(O)cc3)oc3cc(O)cc(O)c3c2=O)C(O)C(O)C1O (stereo unspecified) [Kaempferol-3-O-glucuronide] 9.51 min

Could you tell me which LC retention time is on file for CCCC(C(=O)O)c1cccc(O)c1 (stereo unspecified) [3-Hydroxyphenylvaleric acid] ? 10.9 min

* * *

- experiment: RP, 100 × 0.5 mm, 2.7 µm, 45 °C, 0.015 mL/min, estimated dead time 0.83 min; A: water + 0.9% formic acid; B: acetonitrile + 0.9% formic acid; gradient (min/%B) 0/1 0.5/1 4/95 4.5/1 5/1
- condition_parameters: stereoisomer not certain
result_type: LC retention time (min)
Give the value, in units of min, as a plain number.

In [3]: df
Out[3]:
                compound  experimental_value
0  O=C(O)CNC(=O)c1ccccc1                2.13

Consider the compound shown here: `Cn1cnc2c1c(=O)[nH]c(=O)n2C` What is its recorded LC retention time? 2.05

// LC retention time lookup, key: `O=C(O)CCc1ccc(O)cc1` 2.32

Recorded LC retention time for O=C(O)Cc1ccc(O)cc1 [4-Hydroxyphenylacetic acid] , please? 2.71

Requested field: LC retention time. Item: `COc1cc(-c2oc3cc(O)cc(O)c3c(=O)c2O)ccc1O` 3.24

Quick check: LC retention time of `O=C(CCc1ccc(O)cc1)c1c(O)cc(O)cc1O` ? 3.13

May I ask what LC retention time has been recorded for O=c1c(O)c(-c2ccc(OS(=O)(=O)O)c(O)c2)oc2cc(O)cc(O)c12 [Quercetin 4-O-sulfate] ? 2.82

Query (compound): `O=C(O)C=Cc1ccc(O)cc1` ; field requested: LC retention time 2.3

// LC retention time lookup, key: `Oc1ccc(C=Cc2cc(O)cc(O)c2)cc1` 2.88

Please give the measured LC retention time for this compound: `COc1cc(C=CC(=O)CC(=O)C=Cc2ccc(O)c(OC)c2)ccc1O` 3.75

Which LC retention time is listed for Oc1cc(O)c2c(c1)OC1(c3ccc(O)c(O)c3)Oc3cc(O)c4c(c3C2C1O)OC(c1ccc(O)c(O)c1)C(O)C4 (stereo not given) ? 2.53
